assay: UV-stability of 5 mM solutions in acetonitrile, remaining compound by HPLC; type: physicochemical; details: under UV light at 254 nm, 10 h
Could you please report measured share of remaining compound 10 h for the items listed next?
Numbers only, in %.

CC/C=C/[C@H]1CCC[C@H](OC2CCC(N(C)C)C(C)O2)[C@@H](C)C(=O)C2=C[C@@H]3[C@@H](C=C[C@]4(OCC)C[C@@H](OC5OC(C)C(OC)C(OC)C5OC)C[C@@H]34)[C@@H]2CC(=O)O1 (stereo partly shown) [Compound H2, 7-ethoxy butenyl spinosyn al] ... 39.7

Hi there! I need share of remaining compound 10 h for each item below, if you can.
1. CC/C=C/[C@H]1CCC[C@H](OC2CCC(N(C)C)C(C)O2)[C@@H](C)C(=O)C2=C[C@@H]3[C@@H](C=C[C@]4(OC)C[C@@H](OC5OC(C)C(OC)C(OC)C5OC)C[C@@H]34)[C@@H]2CC(=O)O1 (stereo partly drawn) [Compound H1, 7-methoxy butenyl spinosyn α1]
2. CCC=CC1CCCC(OC2CCC(N(C)C)C(C)O2)C(C)C(=O)C2=CC3C(C=CC4CC(OC5OC(C)C(OC)C(OC)C5OC)CC43)C2CC(=O)O1 (stereo not drawn) [Butenyl spinosyn, butenyl spinosyn α1, reference compound]
3. CC/C=C/[C@H]1CCC[C@H](OC2CCC(N(C)C)C(C)O2)[C@@H](C)C(=O)C2=C[C@@H]3[C@@H](C=C[C@]4(O)C[C@@H](OC5OC(C)C(OC)C(OC)C5OC)C[C@@H]34)[C@@H]2CC(=O)O1 (stereo partly drawn) [Compound A1, 7-hydroxy butenyl spinosyn α1]

## Result
73.5
59.6
52.2

###

assay: UV-stability of 5 mM solutions in acetonitrile, remaining compound by HPLC; format: physicochemical; details: without UV, 5 h
Parameter Measured: share of remaining compound 5 h (%)
Answers are plain numbers, in %.

Previously resolved entries follow.
CC/C=C/[C@H]1CCC[C@H](OC2CCC(N(C)C)C(C)O2)[C@@H](C)C(=O)C2=C[C@@H]3[C@@H](C=C[C@]4(OC)C[C@@H](OC5OC(C)C(OC)C(OC)C5OC)C[C@@H]34)[C@@H]2CC(=O)O1 (stereo partly drawn) [Compound H1, 7-methoxy butenyl spinosyn α1] ... 96.9
CCC=CC1CCCC(OC2CCC(N(C)C)C(C)O2)C(C)C(=O)C2=CC3C(C=CC4CC(OC5OC(C)C(OC)C(OC)C5OC)CC43)C2CC(=O)O1 (stereo not drawn) [Butenyl spinosyn, butenyl spinosyn α1, reference compound] ... 90.7
CC/C=C/[C@H]1CCC[C@H](OC2CCC(N(C)C)C(C)O2)[C@@H](C)C(=O)C2=C[C@@H]3[C@@H](C=C[C@]4(O)C[C@@H](OC5OC(C)C(OC)C(OC)C5OC)C[C@@H]34)[C@@H]2CC(=O)O1 (stereo partly drawn) [Compound A1, 7-hydroxy butenyl spinosyn α1] ... 90.8

Now take the following compound into account.
## Task Bench note: what share of remaining compound 5 h did CC/C=C/[C@H]1CCC[C@H](OC2CCC(N(C)C)C(C)O2)[C@@H](C)C(=O)C2=C[C@@H]3[C@@H](C=C[C@]4(OCC)C[C@@H](OC5OC(C)C(OC)C(OC)C5OC)C[C@@H]34)[C@@H]2CC(=O)O1 (stereo partly shown) [Compound H2, 7-ethoxy butenyl spinosyn al] show?
## Result 93.7

###

assay: UV-stability of 5 mM solutions in acetonitrile, remaining compound by HPLC; type: physicochemical; conditions: 0 h, start value for both aliquots
Parameter Measured: share of remaining compound 0 h (%)
Give bare numbers, in %.

Worked examples follow.
CC/C=C/[C@H]1CCC[C@H](OC2CCC(N(C)C)C(C)O2)[C@@H](C)C(=O)C2=C[C@@H]3[C@@H](C=C[C@]4(OC)C[C@@H](OC5OC(C)C(OC)C(OC)C5OC)C[C@@H]34)[C@@H]2CC(=O)O1 (stereo partly drawn) [Compound H1, 7-methoxy butenyl spinosyn α1] ... 96.0
CC/C=C/[C@H]1CCC[C@H](OC2CCC(N(C)C)C(C)O2)[C@@H](C)C(=O)C2=C[C@@H]3[C@@H](C=C[C@]4(OCC)C[C@@H](OC5OC(C)C(OC)C(OC)C5OC)C[C@@H]34)[C@@H]2CC(=O)O1 (stereo partly shown) [Compound H2, 7-ethoxy butenyl spinosyn al] ... 93.2
CC/C=C/[C@H]1CCC[C@H](OC2CCC(N(C)C)C(C)O2)[C@@H](C)C(=O)C2=C[C@@H]3[C@@H](C=C[C@]4(O)C[C@@H](OC5OC(C)C(OC)C(OC)C5OC)C[C@@H]34)[C@@H]2CC(=O)O1 (stereo partly drawn) [Compound A1, 7-hydroxy butenyl spinosyn α1] ... 90.7

With those in mind, consider the next molecule.
## Task Name the recorded share of remaining compound 0 h for CCC=CC1CCCC(OC2CCC(N(C)C)C(C)O2)C(C)C(=O)C2=CC3C(C=CC4CC(OC5OC(C)C(OC)C(OC)C5OC)CC43)C2CC(=O)O1 (stereo not drawn) [Butenyl spinosyn, butenyl spinosyn α1, reference compound] .
## Result 90.0

###

assay: UV-stability of 5 mM solutions in acetonitrile, remaining compound by HPLC; assay type: physicochemical; conditions: without UV, 0 h to 10 h
What Purity changing was measured for each of the following?
One number for each entry, in %.

CCC=CC1CCCC(OC2CCC(N(C)C)C(C)O2)C(C)C(=O)C2=CC3C(C=CC4CC(OC5OC(C)C(OC)C(OC)C5OC)CC43)C2CC(=O)O1 (stereo not drawn) [Butenyl spinosyn, butenyl spinosyn α1, reference compound] ... −0.6

Now look at this one.
## Task Entry CC/C=C/[C@H]1CCC[C@H](OC2CCC(N(C)C)C(C)O2)[C@@H](C)C(=O)C2=C[C@@H]3[C@@H](C=C[C@]4(OCC)C[C@@H](OC5OC(C)C(OC)C(OC)C5OC)C[C@@H]34)[C@@H]2CC(=O)O1 (stereo partly shown) [Compound H2, 7-ethoxy butenyl spinosyn al] : reported Purity changing = ?
## Result −0.9

###

assay: UV-stability of 5 mM solutions in acetonitrile, remaining compound by HPLC; assay type: physicochemical; conditions: without UV, 1 h
Kindly state share of remaining compound 1 h for each of the entries shown.
Reply with the number and its unit after it.

Hello, I would appreciate it if you could give share of remaining compound 1 h for each entry below.
1. CC/C=C/[C@H]1CCC[C@H](OC2CCC(N(C)C)C(C)O2)[C@@H](C)C(=O)C2=C[C@@H]3[C@@H](C=C[C@]4(OC)C[C@@H](OC5OC(C)C(OC)C(OC)C5OC)C[C@@H]34)[C@@H]2CC(=O)O1 (stereo partly drawn) [Compound H1, 7-methoxy butenyl spinosyn α1]
2. CC/C=C/[C@H]1CCC[C@H](OC2CCC(N(C)C)C(C)O2)[C@@H](C)C(=O)C2=C[C@@H]3[C@@H](C=C[C@]4(OCC)C[C@@H](OC5OC(C)C(OC)C(OC)C5OC)C[C@@H]34)[C@@H]2CC(=O)O1 (stereo partly shown) [Compound H2, 7-ethoxy butenyl spinosyn al]

## Result
96.5%
93.6%

Give measured share of remaining compound 1 h for every item shown.
1. CCC=CC1CCCC(OC2CCC(N(C)C)C(C)O2)C(C)C(=O)C2=CC3C(C=CC4CC(OC5OC(C)C(OC)C(OC)C5OC)CC43)C2CC(=O)O1 (stereo not drawn) [Butenyl spinosyn, butenyl spinosyn α1, reference compound]
2. CC/C=C/[C@H]1CCC[C@H](OC2CCC(N(C)C)C(C)O2)[C@@H](C)C(=O)C2=C[C@@H]3[C@@H](C=C[C@]4(O)C[C@@H](OC5OC(C)C(OC)C(OC)C5OC)C[C@@H]34)[C@@H]2CC(=O)O1 (stereo partly drawn) [Compound A1, 7-hydroxy butenyl spinosyn α1]

## Result
1: 90.6%; 2: 90.7%

###

I'd appreciate it if you could supply share of remaining compound 10 h values for the items below.
Experiment: UV-stability of 5 mM solutions in acetonitrile, remaining compound by HPLC
Type: physicochemical
Conditions: without UV, 10 h
Experimental: Synthesized spinosyn compounds were used to prepare 5 mM solutions in acetonitrile. The solution was divided in 2 aliquots and one aliquot was exposed to UV light at 254 nm and the other aliquot was incubated in the same conditions without UV light exposure. Quantities of remaining starting compounds were determined by HPLC after 0 h, 1 h, 5 h and 10 h.
Numbers only, in %.

Solved cases below.
CC/C=C/[C@H]1CCC[C@H](OC2CCC(N(C)C)C(C)O2)[C@@H](C)C(=O)C2=C[C@@H]3[C@@H](C=C[C@]4(OC)C[C@@H](OC5OC(C)C(OC)C(OC)C5OC)C[C@@H]34)[C@@H]2CC(=O)O1 (stereo partly drawn) [Compound H1, 7-methoxy butenyl spinosyn α1] ... 96.7
CC/C=C/[C@H]1CCC[C@H](OC2CCC(N(C)C)C(C)O2)[C@@H](C)C(=O)C2=C[C@@H]3[C@@H](C=C[C@]4(OCC)C[C@@H](OC5OC(C)C(OC)C(OC)C5OC)C[C@@H]34)[C@@H]2CC(=O)O1 (stereo partly shown) [Compound H2, 7-ethoxy butenyl spinosyn al] ... 92.3
CCC=CC1CCCC(OC2CCC(N(C)C)C(C)O2)C(C)C(=O)C2=CC3C(C=CC4CC(OC5OC(C)C(OC)C(OC)C5OC)CC43)C2CC(=O)O1 (stereo not drawn) [Butenyl spinosyn, butenyl spinosyn α1, reference compound] ... 89.4

## Task If you can, please state the reported share of remaining compound 10 h value of CC/C=C/[C@H]1CCC[C@H](OC2CCC(N(C)C)C(C)O2)[C@@H](C)C(=O)C2=C[C@@H]3[C@@H](C=C[C@]4(O)C[C@@H](OC5OC(C)C(OC)C(OC)C5OC)C[C@@H]34)[C@@H]2CC(=O)O1 (stereo partly drawn) [Compound A1, 7-hydroxy butenyl spinosyn α1] .
## Result 90.9
